B1: scFv; the commonest letter at each place (parent)
chain 1: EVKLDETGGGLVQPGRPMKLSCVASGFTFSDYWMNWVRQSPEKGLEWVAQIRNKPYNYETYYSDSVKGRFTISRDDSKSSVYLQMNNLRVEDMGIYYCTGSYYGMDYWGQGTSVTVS
chain 2: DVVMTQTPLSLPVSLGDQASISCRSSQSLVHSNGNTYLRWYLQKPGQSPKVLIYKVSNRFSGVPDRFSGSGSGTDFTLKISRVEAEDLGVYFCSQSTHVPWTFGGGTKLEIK

Variants of: B1
Assay overview: yeast surface expression (ratio to wild type); higher = more expressed
Settings: format: scFv 4-4-20, heavy + light
Endpoint label: yeast surface expression

chain 1 D31H V37I :: 0.799
chain 1 M105F Y107S G109S :: 0.81
chain 1 Y102F G104K :: 0.81
chain 1 T28Y D31Y :: 0.779
chain 1 S101R Y107I :: 0.812
chain 1 S101F G104L :: 0.778
chain 1 S30R Y32W :: 0.811
